Listed here are molecules together with their documented Ratio.
experiment: Relative ratio in comparison with PGF2-alpha in bovine corpus lutea membranes; format: cell membranes
Please state the value as a number alone, without comment.

Below: 4 molecules and their reported Ratio.
[N-]=[N+]=Nc1ccc(OC[C@H](O)/C=C/[C@@H]2[C@@H](C/C=C\CCCC(=O)O)[C@@H](O)C[C@H]2O)c(O)c1 = 860
COC(=O)CCC/C=C\C[C@@H]1C(/C=C/[C@H](O)CCc2ccccc2)[C@H](O)C[C@@H]1O (stereo not given in full) = 360
[N-]=[N+]=Nc1ccc(CC[C@H](O)/C=C/[C@@H]2[C@@H](C/C=C\CCCC(=O)O)[C@@H](O)C[C@H]2O)c(O)c1 = 1600
COC(=O)CCC/C=C\C[C@@H]1C(/C=C/[C@@H](O)CCc2ccccc2)[C@H](O)C[C@@H]1O (stereo not given in full) = 14

Give its Ratio value. Item: `[N-]=[N+]=Nc1ccc(CC[C@H](O)/C=C/[C@@H]2[C@@H](C/C=C\CCCC(=O)O)[C@@H](O)C[C@H]2O)cc1I`
50

----------
target: Prostaglandin F2-alpha receptor (Bos taurus); test: Binding potency towards Prostaglandin F2 alpha receptor (competitive binding) with natural [3H]-PGF 2 alpha in bovine corpora lutea plasma membranes (BCLM)
quantity.kind: pIC50
Lab note — pIC50 values are minus log10 of concentrations in M.

Known results for compounds:
[N-]=[N+]=Nc1ccc(CC[C@@H](O)/C=C/[C@@H]2[C@@H](C/C=C\CCCC(=O)O)[C@@H](O)C[C@H]2O)cc1I = 4.17
[N-]=[N+]=Nc1ccc(CC[C@H](O)/C=C/[C@@H]2[C@@H](C/C=C\CCCC(=O)O)[C@@H](O)C[C@H]2O)cc1I = 5.15
[N-]=[N+]=Nc1ccc(OC[C@H](O)/C=C/[C@@H]2[C@@H](C/C=C\CCCC(=O)O)[C@@H](O)C[C@H]2O)c(O)c1 = 3.92

Entry `[N-]=[N+]=Nc1ccc(CC[C@H](O)/C=C/[C@@H]2[C@@H](C/C=C\CCCC(=O)O)[C@@H](O)C[C@H]2O)c(O)c1` : reported pIC50 = ?
3.66

----------
# Lookup of reported pIC50 keyed by entry
biological target: Prostaglandin F2-alpha receptor (Bos taurus, UniProt P37289); experiment: Binding potency towards PGF-2 alpha receptor (competitive binding) with natural [3H]-PGF 2 alpha in bovine corpora lutea plasma membranes (BCLM)
Sequence (P37289 whole entry): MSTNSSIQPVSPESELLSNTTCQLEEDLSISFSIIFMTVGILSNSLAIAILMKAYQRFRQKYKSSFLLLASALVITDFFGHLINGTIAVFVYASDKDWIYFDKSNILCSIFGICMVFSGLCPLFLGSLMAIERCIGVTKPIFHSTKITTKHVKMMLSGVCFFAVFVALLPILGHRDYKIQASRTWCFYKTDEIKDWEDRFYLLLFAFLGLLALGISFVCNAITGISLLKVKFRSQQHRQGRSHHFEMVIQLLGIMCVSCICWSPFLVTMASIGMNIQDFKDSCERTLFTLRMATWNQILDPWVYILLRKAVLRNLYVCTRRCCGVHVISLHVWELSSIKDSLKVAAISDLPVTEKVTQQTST
pIC50 here is simply -log10 of the concentration when that concentration is written in mol/L.

COC(=O)CCC/C=C\C[C@@H]1C(/C=C/[C@H](O)CCc2ccccc2)[C@H](O)C[C@@H]1O (some centres not stated) = 4.30

Alright, here's another compound for you.
Item COC(=O)CCC/C=C\C[C@@H]1C(/C=C/[C@@H](O)CCc2ccccc2)[C@H](O)C[C@@H]1O (some centres not stated) has what recorded pIC50?
5.70
